biological target: human PAD4 (hPAD4) (Homo sapiens); assay: RFMS human PAD4 functional assay (rapid-fire mass spectrum); settings: 5 nM hPAD4 enzyme, 250 μM BAEE, 50 μM Calcium; 30 min preincubation, 90 min reaction at 37° C.
Sequence (Q9UM07 whole entry): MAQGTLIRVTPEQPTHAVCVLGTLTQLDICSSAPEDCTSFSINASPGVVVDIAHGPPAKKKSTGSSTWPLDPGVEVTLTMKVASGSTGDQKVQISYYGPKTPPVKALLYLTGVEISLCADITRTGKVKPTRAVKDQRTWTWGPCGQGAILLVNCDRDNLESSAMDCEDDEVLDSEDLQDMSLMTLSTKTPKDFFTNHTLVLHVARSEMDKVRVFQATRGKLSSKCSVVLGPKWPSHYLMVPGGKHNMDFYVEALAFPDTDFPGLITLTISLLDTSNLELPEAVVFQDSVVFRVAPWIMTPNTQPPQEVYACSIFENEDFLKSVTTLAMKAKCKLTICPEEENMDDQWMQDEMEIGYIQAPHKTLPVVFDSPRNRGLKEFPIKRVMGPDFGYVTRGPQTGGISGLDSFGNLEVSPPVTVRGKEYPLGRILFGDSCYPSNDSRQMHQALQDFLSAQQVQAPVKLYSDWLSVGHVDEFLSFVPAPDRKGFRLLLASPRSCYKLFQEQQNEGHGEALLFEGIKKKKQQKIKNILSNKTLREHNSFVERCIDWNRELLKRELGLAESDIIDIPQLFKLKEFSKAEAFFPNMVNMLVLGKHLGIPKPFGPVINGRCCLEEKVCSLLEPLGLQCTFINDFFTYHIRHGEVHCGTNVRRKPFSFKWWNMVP
reportedMetric: IC50 (nM)

COc1cc(C(=O)N2CC3CCC2[C@@H]3N)cc2nc(-c3cc4ccccc4n3CC3CC3)n(CCc3cnn(C)c3)c12 (stereo partly shown); 338
COc1cc(C(=O)N2CC3CCC2[C@@H]3N)cc2nc(-c3cc4cccnc4n3CC3CC3)n(CC3CN(C(=O)c4cccc(Cl)c4)C3)c12 (stereo partly shown); 59
COc1cc(C(=O)N2CC3CCC2[C@@H]3N)cc2nc(-c3cc4cccnc4n3CC3CC3)n(CC3CCN(c4cnc(C#N)nc4)CC3)c12 (stereo partly shown); 96

I = COc1cc(C(=O)N2C[C@H](N)C[C@@H](F)C2)cc2nc(-c3cc4ccccc4n3CC3CC3)n(Cc3ccnn3C)c12
II = COc1cc(C(=O)N2C[C@H](N)C[C@@H](F)C2)cc2nc(-c3cc4ccccc4n3CC3CC3)n(CC3(C)CN(C(=O)c4ccccc4)C3)c12
III = COc1cc(C(=O)N2C[C@H]3CC[C@@H]2[C@@H]3N)cc2nc(-c3cc4cccnc4n3CC3CC3)n(CC3CN(c4ccncc4)C3)c12
Let's sort these by IC50, smallest first. Go ahead? # the answer lists labels in the order requested
II, III, I
